Recorded Kd, one value per entry.
# tested_on: T1, Human PSMA antigen (human, UniProt Q04609 44-750, limits assumed)
# T1 construct: This is the antigen immobilised on the Biacore chip; also called FOLH1_HUMAN
# experiment_summary: SPR (Biacore), 37 C, antibody over immobilized PSMA
Write the answer as a number in nM, unit excluded.

Below: 3 binders and their reported Kd.
binder="10J5-chimeric J591 (antibody, V domains shown, also called J591 chimeric antibody) VH: EVQLQQSGPELVKPGTSVRISCKTSGYTFTEYTIHWVKQSHGKSLEWIGNINPNNGGTTYNQKFEDKATLTVDKSSSTAYMELRSLTSEDSAVYYCAAGWNFDYWGQGTTLTVSS VL: DIVMTQSHKFMSTSVGDRVSIICKASQDVGTAVDWYQQKPGQSPKLLIYWASTRHTGVPDRFTGSGSGTDFTLTITNVQSEDLADYFCQQYNSYPLTFGAGTMLDLKR" unit_spec=nM experimental_result=0.206
binder="huJ591 (J591_VH-2 + J591_VL-3) (antibody, human IgG1, V domains shown, One of the 9 huJ591 versions; Human IgG1 frameworks) VH: QVQLVQSGAEVKKPGASVKVSCKASGYTFTEYTMHWVRQAPGQGLEWMGNINPNNGGTTYNQKFQGRVTMTVDKSISTAYMELSRLRSDDTAVYYCAAGWNFDYWGQGTLVTVSS VL: DIVMTQSPSSLSASVGDRVTITCRASQDVGTALDWYQQKPGKAPELLIYWASSLHSGVPSRFRGSGSGTDFTLTISSVQPEDFATYYCQQYNSYPLTFGQGTKLEIK" unit_spec=nM experimental_result=3.48
binder="huJ591 (J591_VH-3 + J591_VL-3) (antibody, human IgG1, V domains shown, One of the 9 huJ591 versions; Human IgG1 frameworks) VH: QVQLVQSGAEVKKPGASVKVSCKASGYTFTEYTMHWVRQAPGQRLEWMGNINPNNGGTTYSQKFQGRVTITVDKSASTAYMELSSLRSEDTAVYYCAAGWNFDYWGQGTLVTVSS VL: DIVMTQSPSSLSASVGDRVTITCRASQDVGTALDWYQQKPGKAPELLIYWASSLHSGVPSRFRGSGSGTDFTLTISSVQPEDFATYYCQQYNSYPLTFGQGTKLEIK" unit_spec=nM experimental_result=11.9

API: the following record is the query input.
[in] I am curious: what Kd value has been reported for huJ591 (J591_VH-1 + J591_VL-3) (antibody, human IgG1, V domains shown, One of the 9 huJ591 versions; Human IgG1 frameworks) VH: QVQLVQSGAEVKKPGASVKVSCKASGYTFTEYTMHWVRQAPGQGLEWMGNINPNNGGTTYAQKFQGRVTMTRDKSISTAYMELSRLRSDDTAVYYCAAGWNFDYWGQGTLVTVSS VL: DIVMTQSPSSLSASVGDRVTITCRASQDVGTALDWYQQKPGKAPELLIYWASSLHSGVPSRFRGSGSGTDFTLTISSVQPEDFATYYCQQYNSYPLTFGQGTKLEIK ?
[out] 3.55
